Listing of recorded kon, kinetics toward antigen with 10 µM MTX by entry.
# Tested on: human CD33
# experimentSummary: Biacore SPR binding kinetics of anti-CD33 scFv-Fc clones with or without 10 µM MTX
# experimentalConditions: CD33; 10 µM MTX; 37° C., pH 7.4; scFv-Fc
readoutKind: kon, kinetics toward antigen with 10 µM MTX

molecule	endpointValue
P16_E06: anti-CD33 clone with conditional affinity; VH SEQ ID NO: 29, VL SEQ ID NO: 30 (antibody, V domains shown, Synthetic Antibody) VH: QVQLVESGGGLVQAGGSLRLSCAASRRSSRSWAMHWVRQAPGKGLEWVAVISYDGRLKYYADSVKGRFTISRDNAEYLVYLQMNSLRAEDTAVYYCAAEGGDYPGTSDGGLDIWGQGTLVTVSS VL: DIQMTQSPSSLSASVGDRVTITCRASQSISNYLNWYQQKPGKAPKLLIYGASSLQSGVPSRFSGSGSGTDFTLTISSLQPEDFATYYCQQSYSAGTFGQGTKVEIK	75000 M⁻¹ s⁻¹
P08_C08: anti-CD33 clone with conditional affinity; VH SEQ ID NO: 27, VL SEQ ID NO: 28 (antibody, V domains shown, Synthetic Antibody) VH: QVQLVESGGGLVQAGGSLRLSCAASRRSSRSWAMHWVRQAPGKGLEWVAVISYDGRLKYYADSVKGRFTISRDNAEYLVYLQMNSLRAEDTAVYYCAAEGSGSTDGSGAIDVWGQGTLVTVSS VL: DIQMTQSPSSLSASVGDRVTITCRASQSIGSYLNWYQQKPGKAPKLLIYAASSLQSGVPSRFSGSGSGTDFTLTISSLQPEDFATYYCQQSYSSGSFGQGTKVEIK	94000 M⁻¹ s⁻¹
